Data credit: paper PMC4336329

Consider the following compounds; for each one, report its hERG current change (%, negative = inhibition) at 10uM.
assay target: human ether-à-go-go-related gene (hERG) potassium channel (human, UniProt Q12809);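 also: peak tail current of the secondary pulse compared with the same well before compound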
Sequence (Q12809 whole entry, looked up): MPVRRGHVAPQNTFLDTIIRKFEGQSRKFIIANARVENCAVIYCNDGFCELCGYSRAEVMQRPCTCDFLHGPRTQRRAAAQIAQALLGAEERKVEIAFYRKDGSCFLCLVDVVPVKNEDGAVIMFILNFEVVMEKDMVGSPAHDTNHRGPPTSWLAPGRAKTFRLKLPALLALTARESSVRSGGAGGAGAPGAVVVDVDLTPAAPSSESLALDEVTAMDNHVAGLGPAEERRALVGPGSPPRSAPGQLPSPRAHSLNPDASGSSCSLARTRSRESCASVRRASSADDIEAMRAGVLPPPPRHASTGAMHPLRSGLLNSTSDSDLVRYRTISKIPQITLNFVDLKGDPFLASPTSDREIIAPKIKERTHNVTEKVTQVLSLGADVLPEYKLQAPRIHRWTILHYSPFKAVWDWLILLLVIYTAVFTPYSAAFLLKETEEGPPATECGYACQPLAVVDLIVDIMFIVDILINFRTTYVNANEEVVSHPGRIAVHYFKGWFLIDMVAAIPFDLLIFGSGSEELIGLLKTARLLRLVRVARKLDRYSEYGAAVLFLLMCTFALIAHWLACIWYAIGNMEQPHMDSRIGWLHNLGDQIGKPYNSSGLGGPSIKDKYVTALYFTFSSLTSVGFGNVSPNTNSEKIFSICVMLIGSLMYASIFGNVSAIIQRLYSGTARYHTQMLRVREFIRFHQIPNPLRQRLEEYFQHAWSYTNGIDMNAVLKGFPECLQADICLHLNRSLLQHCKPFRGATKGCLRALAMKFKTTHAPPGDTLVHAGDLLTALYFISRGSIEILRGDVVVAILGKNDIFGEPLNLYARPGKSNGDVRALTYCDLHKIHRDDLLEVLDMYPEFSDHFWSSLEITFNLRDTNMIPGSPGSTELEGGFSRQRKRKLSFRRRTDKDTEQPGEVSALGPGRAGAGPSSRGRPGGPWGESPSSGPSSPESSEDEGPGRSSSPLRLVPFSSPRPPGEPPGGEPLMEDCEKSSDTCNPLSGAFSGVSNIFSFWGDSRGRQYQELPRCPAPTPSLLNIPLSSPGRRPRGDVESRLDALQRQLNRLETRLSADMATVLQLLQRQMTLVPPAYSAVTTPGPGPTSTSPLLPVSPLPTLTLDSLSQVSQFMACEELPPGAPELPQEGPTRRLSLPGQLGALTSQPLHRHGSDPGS
method description: primary screen, population patch clamp on CHO cells stably expressing hERG; higher = less effect of the substance
The campaign covered roughly 310,000 compounds. About 14,000 (4.5%) showed an effect of 50% or more. The effect is printed as a negative number. Shown is part of a subset that was picked to be rich in strong results.
Give a bare numeral; the unit % is implied.

Given the compound CCOc1c(C)cnc2c1c(=O)n(Cc1cccc(Cl)c1)c(=O)n2C and test system human ether-à-go-go-related gene (hERG) potassium channel (human, UniProt Q12809), the measured hERG current change (%, negative = inhibition) at 10uM is -36.1

Given the compound COc1ccc(OC)c(CN2CCN(CCCc3ccccc3)C(CCO)C2)c1 (stereo not drawn) and test system human ether-à-go-go-related gene (hERG) potassium channel (human, UniProt Q12809), the measured hERG current change (%, negative = inhibition) at 10uM is -68.6

Given the compound CC(=O)c1ccc(N2CCN(C(=O)c3nn(Cc4ccccc4)c(=O)c4ccccc34)CC2)cc1 and test system human ether-à-go-go-related gene (hERG) potassium channel (human, UniProt Q12809), the measured hERG current change (%, negative = inhibition) at 10uM is -75.1

Given the compound O=C(c1nn(Cc2ccccc2)c(=O)c2ccccc12)N1CCN(c2ccccn2)CC1 and test system human ether-à-go-go-related gene (hERG) potassium channel (human, UniProt Q12809), the measured hERG current change (%, negative = inhibition) at 10uM is -66.3

Given the compound O=C(c1nn(-c2ccccc2)c(=O)c2ccccc12)N1CCN(c2ccccn2)CC1 and test system human ether-à-go-go-related gene (hERG) potassium channel (human, UniProt Q12809), the measured hERG current change (%, negative = inhibition) at 10uM is -16.5

Given the compound CC(C)CCNC(=O)c1nn(Cc2ccccc2)c(=O)c2ccccc12 and test system human ether-à-go-go-related gene (hERG) potassium channel (human, UniProt Q12809), the measured hERG current change (%, negative = inhibition) at 10uM is 5.59

Given the compound O=C(c1nn(Cc2ccccc2)c(=O)c2ccccc12)N1CCc2ccccc2C1 and test system human ether-à-go-go-related gene (hERG) potassium channel (human, UniProt Q12809), the measured hERG current change (%, negative = inhibition) at 10uM is -29

Given the compound COc1cccc(CN2CCN(CCc3ccccc3)C(CCO)C2)c1OC (stereo not drawn) and test system human ether-à-go-go-related gene (hERG) potassium channel (human, UniProt Q12809), the measured hERG current change (%, negative = inhibition) at 10uM is -34.8

Given the compound O=C(c1ccc(Cn2c(=O)[nH]c3ccccc3c2=O)cc1)N1CCN(c2ccccn2)CC1 and test system human ether-à-go-go-related gene (hERG) potassium channel (human, UniProt Q12809), the measured hERG current change (%, negative = inhibition) at 10uM is 0.196
